System: H. flu
Assay type: cell-based, H. influenza
details: H. flu
readout-name: MIC (μg/mL) H. flu (µg/mL)
A number alone suffices; assume µg/mL.

Reference set (3 entries):
compound="COC1C=COC2(C)Oc3c(C)c(O)c4c(=O)c(c5oc6cc(N7CCC(C)(NC(C)=O)CC7)cc(O)c6nc-5c4c3C2=O)NC(=O)C(C)=CC=CC(C)C(O)C(C)C(O)C(C)C(O)C1C (centres unmarked) [Compound 74]" readout_name="MIC (μg/mL) H. flu" measured_result=0.12
compound="CCCC(=O)NC1CCN(c2cc(O)c3nc4c5c6c7c(C)c(O)c5c(=O)c(c-4oc3c2)NC(=O)C(C)=CC=CC(C)C(O)C(C)C(O)C(C)C(O)C(C)C(OC)C=COC(C)(O7)C6=O)CC1 (centres unmarked) [Compound 36]" readout_name="MIC (μg/mL) H. flu" measured_result=0.25
compound="COC1C=COC2(C)Oc3c(C)c(O)c4c(=O)c(c5oc6cc(N7CCC(NC(=O)N8CCN(C)CC8)CC7)cc(O)c6nc-5c4c3C2=O)NC(=O)C(C)=CC=CC(C)C(O)C(C)C(O)C(C)C(OC(C)=O)C1C (centres unmarked) [Compound 50]" readout_name="MIC (μg/mL) H. flu" measured_result=0.5

Look at this compound and give its reported MIC (μg/mL) H. flu. COC1C=COC2(C)Oc3c(C)c(O)c4c(=O)c(c5oc6cc(N7CCC(CCO)CC7)cc(O)c6nc-5c4c3C2=O)NC(=O)C(C)=CC=CC(C)C(O)C(C)C(O)C(C)C(OC(C)=O)C1C (centres unmarked) [Compound 61]
0.25

Look at this compound and give its reported MIC (μg/mL) H. flu. COC1C=COC2(C)Oc3c(C)c(O)c4c(=O)c(c5oc6cc(N7CC(C)OC(C)C7)cc(O)c6nc-5c4c3C2=O)NC(=O)C(C)=CC=CC(C)C(O)C(C)C(O)C(C)C(O)C1C (centres unmarked) [Compound 114]
0.25

----------
Tested on: E. faecalis
measurement-description: MIC assay, E. faecalis
Assay type: cell-based, Enterococcus faecalis
readout-name: MIC (μg/mL) E. faecalis (µg/mL)
A number alone suffices; assume µg/mL.

compound="COC1C=COC2(C)Oc3c(C)c(O)c4c(=O)c(c5oc6cc(N7CCOCC7)cc(O)c6nc-5c4c3C2=O)NC(=O)C(C)=CC=CC(C)C(O)C(C)C(O)C(C)C(O)C1C (stereo not drawn) [Compound 128]" measured_result=0.06

For the next question, use this compound.
MIC (μg/mL) E. faecalis of CO[C@H]1/C=C/O[C@@]2(C)Oc3c(C)c(O)c4c(=O)c(c5oc6cc(N7CCC(NS(C)(=O)=O)CC7)cc(O)c6nc-5c4c3C2=O)NC(=O)/C(C)=C\C=C\[C@H](C)[C@H](O)[C@@H](C)[C@@H](O)[C@@H](C)[C@H](OC(C)=O)[C@@H]1C [Compound 25] on E. faecalis?
2

----------
Test system: E. faecalis
measurement-description: MIC assay, E. faecalis
Assay type: cell-based, Enterococcus faecalis
Listed here: items and their measured MIC (μg/mL) E. faecalis.

Reference set (3 entries):
compound="COC1C=COC2(C)Oc3c(C)c(O)c4c(=O)c(c5oc6cc(N7CCC(CNC(C)=O)CC7)cc(O)c6nc-5c4c3C2=O)NC(=O)C(C)=CC=CC(C)C(O)C(C)C(O)C(C)C(OC(C)=O)C1C (stereo not shown) [Compound 55]" measured_result="1 µg/mL"
compound="CCCS(=O)(=O)NC1CCN(c2cc(O)c3nc4c5c6c7c(C)c(O)c5c(=O)c(c-4oc3c2)NC(=O)C(C)=CC=CC(C)C(O)C(C)C(O)C(C)C(OC(C)=O)C(C)C(OC)C=COC(C)(O7)C6=O)CC1 (stereo not shown) [Compound 35]" measured_result="4 µg/mL"
compound="CCCNC(=O)NC1CCN(c2cc(O)c3nc4c5c6c7c(C)c(O)c5c(=O)c(c-4oc3c2)NC(=O)/C(C)=C\\C=C\\[C@H](C)[C@H](O)[C@@H](C)[C@@H](O)[C@@H](C)[C@H](O)[C@H](C)[C@@H](OC)/C=C/O[C@@](C)(O7)C6=O)CC1 [Compound 26]" measured_result="2 µg/mL"

Look at this compound and give its reported MIC (μg/mL) E. faecalis. CCOC(=O)NC1CCN(c2ccc3nc4c5c6c7c(C)c(O)c5c(=O)c(c-4n(C)c3c2)NC(=O)/C(C)=C\C=C\[C@H](C)[C@H](O)[C@@H](C)[C@@H](O)[C@@H](C)[C@H](OC(C)=O)[C@H](C)[C@@H](OC)/C=C/O[C@@](C)(O7)C6=O)CC1 [Compound 19]
0.06 µg/mL

Source listed as patent US7271165B2.
